Biological target: Mannose-6-phosphate isomerase (Homo sapiens) (UniProt P34949)
Sequence (P34949 whole entry, looked up): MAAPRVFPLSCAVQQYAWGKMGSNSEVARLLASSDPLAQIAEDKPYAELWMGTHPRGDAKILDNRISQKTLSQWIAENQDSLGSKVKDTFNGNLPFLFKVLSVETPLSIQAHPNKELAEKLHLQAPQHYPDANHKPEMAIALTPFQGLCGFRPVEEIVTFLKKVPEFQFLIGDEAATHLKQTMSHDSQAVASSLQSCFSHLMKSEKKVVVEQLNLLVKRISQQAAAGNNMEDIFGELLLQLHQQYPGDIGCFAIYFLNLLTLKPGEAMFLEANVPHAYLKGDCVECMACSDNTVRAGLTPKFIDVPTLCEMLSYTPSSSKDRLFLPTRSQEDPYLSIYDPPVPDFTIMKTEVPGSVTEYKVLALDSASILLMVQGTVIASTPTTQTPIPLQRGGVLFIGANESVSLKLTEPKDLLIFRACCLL
Assay: MPI inhibition at elevated mannose 6-phosphate – biochemical, fluorescence intensity, high mannose 6-phosphate, primary screen (AID 1220)
Conditions: recombinant PMI enzyme, coupled fluorescence intensity; at 20 µM
Out of some 190,000 compounds screened, about 1,300 (0.68%) were called active. Rule as the data show it: active = inhibition above about 50%; inactive = the rest. Only a selection was taken, and actives are over-represented in it overall.
Hi there, use one of these labels in your reply, thanks! yes (active), no (inactive)

# count of solved cases: 8
CCCCCCn1c(N)c(C(=O)NCCN2CCOCC2)c2nc3ccccc3nc21    no
O=C(NC(=O)N1CCC2(CC1)OCCO2)c1ccc(Cl)cc1    no
Cn1ncnc2c(=O)n(C)c(=O)nc1-2    yes
CC(=O)c1ccc2c(c1)C1C(Cl)C(Sc3ccccc3[N+](=O)[O-])CC1C(c1ccccc1[N+](=O)[O-])N2 (centres undefined)    yes
Cc1ccc2cc(C=C(C#N)C#N)c(Cl)nc2c1    yes
CCCCCn1c(N)c(C(=O)NCCN2CCOCC2)c2nc3ccccc3nc21    yes
CC(C)(C)NC(=O)NC(=O)CN1CC=C(c2ccccc2)CC1    no
CCOP(=O)(OCC)C(c1ccccc1)N(C)C=O (centres undefined)    no

# input for lookup
Query :: Write down the call the test reported for this molecule. Item: CC(C)OC(=O)c1c(N)n(CC2CCCO2)c2nc3ccccc3nc12 (centres undefined)
Result :: no

All values here come from PubChem BioAssay AID1220.
